Hi, quick share: literature IC50 data for TEC (Homo sapiens, UniProt P42680), several sources combined.

| COMPOUND | REPORTED METRIC | RESULT |
| --- | --- | --- |
| C=CC(=O)N1CCC(Nc2n[nH]c3nccc(-c4ccc(CNC(=O)c5ccc(C(C)(C)C)cc5)c(F)c4)c23)CC1 | IC50 | 1560 nM |
| CCC(C)S(=O)(=O)Nc1ccc(F)c(C(=O)c2c[nH]c3ncc(Cl)cc23)c1F (stereo not shown) | IC50 | ≤ 10000 nM |
| C=CC(=O)N1CC[C@@H](Nc2n[nH]c3nccc(-c4ccc(CNC(=O)c5noc(CC)n5)c(F)c4)c23)C1 | IC50 | 361 nM |
| COc1ncc(-c2cnc3[nH]cc(C(=O)c4c(F)ccc(NS(=O)(=O)CC(C)C)c4F)c3c2)cn1 | IC50 | ≤ 10000 nM |
| C[C@H]1CC[C@@H](Nc2n[nH]c3nccc(-c4ccc(CNC(=O)c5noc(C(C)(C)C)n5)c(F)c4)c23)CN1S(=O)(=O)C1CC1 | IC50 | 500 nM |
| C=CC(=O)N[C@@H]1CCN(c2n[nH]c3nccc(-c4ccc(CNC(=O)c5ccc(C(C)(C)O)cc5)c(F)c4)c23)C1 | IC50 | 31.3 nM |
| CC(C)(C)n1ccc(C(=O)NCc2ccc(-c3ccnc4[nH]nc(N[C@@H]5CCNC5)c34)cc2F)n1 | IC50 | > 10000 nM |
| N#Cc1cnc2[nH]cc(C(=O)c3cccc(NS(=O)(=O)c4ccccn4)c3F)c2c1 | IC50 | ≤ 10000 nM |
| N#Cc1ccnc2[nH]cc(C(=O)c3c(F)ccc(NS(=O)(=O)N4CCCC4)c3F)c12 | IC50 | ≤ 10000 nM |
| CC(C)(C)c1noc(C(=O)NCc2ccc(-c3ccnc4[nH]nc(N[C@@H]5CCNC5)c34)cc2F)n1 | IC50 | 1730 nM |

I would be grateful if you could provide IC50 for each of the following entries.
1. COc1ccnc2[nH]cc(C(=O)c3c(F)ccc(NS(=O)(=O)N4CCCC4)c3F)c12
2. CC(C)CN(CC(C)C)S(=O)(=O)c1ccccc1NCC(=O)N1CCC[C@@H](Nc2ncnc3[nH]ncc23)C1
3. N#Cc1cnc2[nH]cc(C(=O)c3cccc(NS(=O)(=O)c4cc(F)ccc4F)c3F)c2c1

Outgoing:
["≤ 10000 nM", "100 to 999 nM", "≤ 10000 nM"]

###

pIC50: −log10 of the molar value.
pIC50 values for TEC (Homo sapiens, UniProt P42680) compiled from several publications are listed below.

For orientation, consider the following solved cases.
| COMPOUND STRING | pIC50 |
| --- | --- |
| COc1cnc2[nH]cc(C(=O)c3c(F)ccc(NS(=O)(=O)C4CCCC4)c3F)c2c1 | ≥ 5.00 |
| Cc1ccc(-c2nn([C@@H]3CCN(C(=O)/C=C/CN(C)C4CCC4)C3)c3ncnc(N)c23)cc1 | > 7.00 |
| O=C(O)/C=C/c1cccc(-c2cnc3[nH]cc(C(=O)c4ccccc4F)c3c2)c1 | ≥ 5.00 |
| COc1ncc(-c2cnc3[nH]cc(C(=O)c4c(F)ccc(NS(=O)(=O)c5ccc(F)cc5)c4F)c3c2)cn1 | ≥ 5.00 |

Each compound below has a recorded value; state its pIC50.
1. CC(C)(C)c1nc(C(=O)NC(C)(C)c2ccc(-c3ccnc4[nH]nc(N[C@@H]5CCNC5)c34)cc2)no1
2. CC(=O)N1CCC(Nc2n[nH]c3nccc(-c4ccc([C@@H](C)NC(=O)c5cc(C(C)(C)O)on5)cc4)c23)CC1
3. CC(C)(C)c1ccc(C(=O)NCc2ccc(-c3ccnc4[nH]nc(N[C@H]5CC[C@H](O)CC5)c34)cc2)cc1

Outgoing:
["< 5.00", "< 5.00", "< 5.00"]

###

IC50 values for UniProt P42680 compiled from several publications are listed below.

| COMPOUND | REPORTED METRIC | RESULT |
| --- | --- | --- |
| C=CC(=O)N1CCC[C@@H](n2nc(-c3ccc(Oc4cccnc4C(N)=O)cc3)c3cncc(Cl)c32)C1 | IC50 | > 100 nM |
| O=C(NCc1ccc(CCc2c[nH]c3ncccc23)cc1)Nc1ccccc1 | IC50 | ≤ 10000 nM |
| O=C(CNc1cc(F)cc(Cl)c1)N1CCCC(Nc2ncnc3[nH]ccc23)C1C(F)(F)F (centres unmarked) | IC50 | 100 to 999 nM |

Please give IC50, item by item, for the list that follows.
1. O=C(c1cc(NS(=O)(=O)N2CCCCC2)ccc1F)c1c[nH]c2ncc(Cl)cc12
2. Nc1ncnc2c1c(-c1cc(O)cc(F)c1)nn2C1CCc2ccccc2C1 (centres unmarked)
3. C=CC(=O)N1CCC(c2n[nH]c3nccc(-c4ccc(CNC(=O)c5noc(C(C)(C)C)n5)c(F)c4)c23)C1 (centres unmarked)
4. C=CC(=O)N1CC[C@@H](Nc2n[nH]c3nccc(-c4ccc(CNC(=O)c5ccc(C)cc5)c(F)c4)c23)C1
5. CC(C)(C)c1noc(C(=O)NCc2ccc(-c3ccnc4[nH]nc(N5CCC(N)CC5)c34)cc2F)n1

Outgoing:
1. ≤ 10000 nM
2. 280 nM
3. 14.9 nM
4. 55 nM
5. 722 nM
